Taken from the supplement of paper PMC12764529.

- assay.method.text: folding stability dG unfold (combined trypsin and chymotrypsin); higher = more stable
Form field: folding stability dG unfold (one value per entry).

{"monomer.sequence": "SAGGSAGGMTTVTYDPSTGVTTVLTPKTDPTSDETSVVTTTVTLPTSPSGGGGTATTTTTTTASSAGGSAGG [r6_952_JUSTAS]", "folding stability dG unfold": "1.18 kcal/mol"}
{"monomer.sequence": "SAGGSAGGSAGGSVTVSLSELKKILKEKGNPGTVEEILEDPNVSVSKDPNSSNEIVTIPGSAGGSAGGSAGG [r7_180_JUSTAS]", "folding stability dG unfold": "< -1 kcal/mol"}
{"monomer.sequence": "SAGGSAGGSVTAVPIEELIPLPTPRTLKVTGTVYVLPGGEVVTERTLTEPSPGTVTVETKTIPLSAGGSAGG [r6_727_JUSTAS]", "folding stability dG unfold": "< -1 kcal/mol"}
{"monomer.sequence": "SAEVRVEIVEVDEERGVIRIEITVPEDLPEEEILEELARRLEELARERGYEVRIERREDGTYRIEIRFPSAG [r14_865_TrROS_Hall]", "folding stability dG unfold": "4.25 kcal/mol"}
{"monomer.sequence": "SAGGSAGGSAGGMMKITIEVDGKKIEITLPPGAELKFDKEKKEIYIRNKKTNEILKLKIKSAGGSAGGSAGG [r7_7_TrROS_Hall]", "folding stability dG unfold": "2.21 kcal/mol"}

Prompt line: Give its folding stability dG unfold value. Item: SAGGSAGGSAGGWIFIIEIDPDNGEIKINWPNGNSIKIPPEDLDNMPIEIKPIPPPPNDKSAGGSAGGSAGG [r7_99_TrROS]
Response line: 1.87 kcal/mol

Prompt line: Give its folding stability dG unfold value. Item: SAGGSAMMTVTITIPKENLTKEEIKKALEEAGAKVVKVEEKDGKVTVTVEMTPEQVEKLKEALKKLSAGGSA [r15_161_TrROS_Hall]
Response line: 4.14 kcal/mol

###

Form field: folding stability dG unfold (one value per entry).
- assay.method.text: folding stability dG unfold (combined trypsin and chymotrypsin); higher = more stable
Express it in kcal/mol; write the number only.

{"monomer.sequence": "SAGGSAGKPRPIDIWIPLPPGAEEVKIEQLDIFIPDGWRIRIEEIEIDPEDPGYIRVTVKIQPLDDSAGGSA [r15_852_TrROS]", "measured": 2.56}

Prompt line: Give its folding stability dG unfold value. Item: SAGGSAGGSAGGNVITVFIPNYQIITIHLSPEPGRIPIEVYPPNGKKEEWPIPDIKELIQSAGGSAGGSAGG [r7_769_TrROS]
Response line: 1.01

Prompt line: Give its folding stability dG unfold value. Item: SAGKSIKILITTEKEEEAKKLAEEIKKELPKLGYKVEVYIMPKEEFEKFLKEFVVPEPDGKLVKVDLSSAGG [r19_187_TrMRF]
Response line: 1.48

Prompt line: Give its folding stability dG unfold value. Item: SAGMKKKITVKVKVKTEEEAEKLAEELEKELGLKVTVEKNEETGVYTITVEVSPEAVEALKKAGVEIESAGG [r19_306_TrROS_Hall]
Response line: 1.86

Prompt line: Give its folding stability dG unfold value. Item: SAGGSAGGSDPTAPVITTVPFPSGAVLTITTYPDSVTITYPSPGTTYTVPASAPIPITYQPALSAGGSAGGS [r12_227_JUSTAS]
Response line: 0.488
